Values were extracted from patent US7465719B2.

Consider the following compounds; for each one, report its pIC50.
- System: JURKAT (human T-cell line)
- test protocol: Secondary assay: cell proliferation WST-1, Jurkat
- Assay type: cell-based
- measurement context: Homo sapiens; Jurkat cells, 48 hours; read-out: Cell Proliferation Inhibition WST-1 (IC50 unless otherwise specified) Jurkat
One number for each entry, as −log10 of the molar value.

Request: Give the reported value of pIC50 for this record: COC(=O)c1ccc(C2(C(=O)Oc3ccc(C(=O)NO)cc3)CCCCC2)cc1
Result: 6.11

Request: Give the reported value of pIC50 for this record: COc1ccc(C2(C(=O)Oc3ccc(C(=O)NO)cc3)CCCCC2)cc1
Result: 6.30

Request: Give the reported value of pIC50 for this record: CC(/C=C/C(=O)NO)=C\[C@@H](C)C(=O)c1ccc(N(C)C)cc1 [TSA, Trichostatin A, reference compound]
Result: 7.38

Further cases:
Request: Give the reported value of pIC50 for this record: O=C(NO)c1ccc(OC(=O)C2(c3ccccc3)CCCCC2)cc1
Result: 5.90

---

- Tested on: NHEK-Ad (primary human adult keratinocyte line)
- test protocol: Secondary assay: cell proliferation WST-1, NHEK-Ad
- Type: cell-based
- measurement context: Homo sapiens, Keratinocyte, 48 h, read-out: Cell Proliferation Inhibition WST-1 (IC50 unless otherwise specified) NHEK-AD
property label: IC50 (µM)
Answers are plain numbers, in µM.

Request: Give the reported value of IC50 for this record: CC(/C=C/C(=O)NO)=C\[C@@H](C)C(=O)c1ccc(N(C)C)cc1 [TSA, Trichostatin A, reference compound]
Result: 0.2

---

- Tested on: NHEK-Ad (primary human adult keratinocyte line)
- test protocol: Secondary assay: cell proliferation WST-1, NHEK-Ad
- Assay type: cell-based
- measurement context: NHEK-AD cells, 48 hours; read-out: Cell Proliferation Inhibition WST-1 (IC50 unless otherwise specified) NHEK-AD
property label: IC50 (µM)
Answers are plain numbers, in µM.

Request: Give the reported value of IC50 for this record: Nc1ccccc1NC(=O)c1ccc(CNC(=O)OCc2cccnc2)cc1 [MS-275, reference compound]
Result: 3.1

---

Consider the following molecules; for each one, report its melting point.

Request: Give the reported value of melting point for this record: O=C(NO)c1ccc(OC(=O)C2(c3ccccc3F)CCCCC2)cc1 [PX119062]
Result: 125 to 126 °C

Request: Give the reported value of melting point for this record: O=C(NO)c1ccc(OC(=O)C2(c3ccc(F)cc3Cl)CCCCC2)cc1 [PX119064]
Result: 164 to 165 °C

Request: Give the reported value of melting point for this record: O=C(NO)c1ccc(OC(=O)C2(c3ccc(Cl)cc3)CCCCC2)cc1 [PX119059]
Result: 145 to 146 °C

Give measured melting point for every item shown.
1. O=C(O)c1ccc(C2(C(=O)Oc3ccc(C(=O)NO)cc3)CCCCC2)cc1 [PX119102]
2. Cc1ccc(C2(C(=O)Oc3ccc(C(=O)NO)cc3)CCCCC2)cc1 [PX118966]
3. O=C(NO)c1ccc(OC(=O)C2(c3ccccc3)CCCCC2)cc1 [PX118479]
4. CCOc1ccc(C2(C(=O)Oc3ccc(C(=O)NO)cc3)CCCCC2)cc1 [PX118925]
5. O=C(NO)c1ccc(OC(=O)C2(c3ccc(O)cc3)CCCCC2)cc1 [PX119103]
6. COC(=O)c1ccc(C2(C(=O)Oc3ccc(C(=O)NO)cc3)CCCCC2)cc1 [PX118480]
7. CC(C)(C)OC(=O)c1ccc(C2(C(=O)Oc3ccc(C(=O)NO)cc3)CCCCC2)cc1 [PX118926]
8. COc1ccc(C2(C(=O)Oc3ccc(C(=O)NO)cc3)CCCC2)cc1 [PX119063]

Result:
["169 to 170 °C", "59 to 60 °C", "142 to 144 °C", "140 to 143 °C", "93 to 94 °C", "129 to 131 °C", "143 to 147 °C (dec.)", "143 to 144 °C"]
